Let's look at some sequences and their measured z-score.
test: Components of the Cytosolic LPS Sensing Pathway: Gene Identification via Genome-wide siRNA Screen; conditions: RAW264.7 macrophages, IL-1a HTRF, actives lie on both sides, screened at 100 nM (by protocol), cells primed 5 h with Pam3CSK4 first;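 note: robust z of the log signal after scaling to non-targeting control siRNA wells of the plate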
The whole screen tested about 53,000 sequences, of which about 3,700 (7%) were called active. The entries come from a sample that favours actives as a whole.
Outcome Measure: z-score

GGCCAUCAGUGUGGAAUGUTT against BC004004
-0.19
GCAACUUGGGAACUCUUUGTT against Pnpla7
-1.77
GGCGGCACGUUCACCUAAATT against Rnps1
1.86
